Each item that follows carries a reported z-score.
# MEASURED_TARGET: Metabotropic glutamate receptor 8 (Rattus norvegicus) (UniProt P70579)
# Sequence (P70579 whole entry, looked up): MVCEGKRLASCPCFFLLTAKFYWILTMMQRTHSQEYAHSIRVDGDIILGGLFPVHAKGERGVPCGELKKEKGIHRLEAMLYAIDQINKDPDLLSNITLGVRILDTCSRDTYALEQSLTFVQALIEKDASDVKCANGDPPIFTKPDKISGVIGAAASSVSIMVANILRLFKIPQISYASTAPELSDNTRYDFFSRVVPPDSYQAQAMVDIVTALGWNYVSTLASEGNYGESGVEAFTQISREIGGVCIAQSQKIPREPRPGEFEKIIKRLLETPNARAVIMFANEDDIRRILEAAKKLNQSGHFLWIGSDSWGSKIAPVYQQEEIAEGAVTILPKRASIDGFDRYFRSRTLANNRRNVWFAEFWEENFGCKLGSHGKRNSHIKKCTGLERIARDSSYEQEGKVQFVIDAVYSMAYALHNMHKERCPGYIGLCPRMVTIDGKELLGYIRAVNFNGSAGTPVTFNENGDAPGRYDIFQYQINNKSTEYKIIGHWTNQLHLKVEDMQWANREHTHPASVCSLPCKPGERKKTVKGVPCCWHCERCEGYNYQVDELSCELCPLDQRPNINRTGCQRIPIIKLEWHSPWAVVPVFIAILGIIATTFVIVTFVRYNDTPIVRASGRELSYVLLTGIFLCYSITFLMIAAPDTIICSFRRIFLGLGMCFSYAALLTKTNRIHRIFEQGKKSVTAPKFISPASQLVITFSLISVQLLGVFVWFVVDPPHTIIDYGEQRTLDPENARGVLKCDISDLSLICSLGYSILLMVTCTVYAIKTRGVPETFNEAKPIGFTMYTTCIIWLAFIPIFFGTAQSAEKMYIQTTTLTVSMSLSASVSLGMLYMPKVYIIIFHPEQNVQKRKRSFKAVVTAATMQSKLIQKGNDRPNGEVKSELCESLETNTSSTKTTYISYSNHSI
# ASSAY_DETAILS: mGluR8 Gi/Go-coupled signaling modulation – cell-based, rat, thallium flux, HTS, primary screen (AID 488969)
# CONDITION_DESCRIPTION: HEK293 rat mGluR8, GIRK (G protein-gated inwardly rectifying potassium channel) thallium flux, FluoZin2; at 10 µM; stronger effect = higher value; submaximal glutamate (EC20) added with thallium
In all, about 110,000 compounds were measured (“z-score”: median about -0.1, highest 2% from about 2 on). The sample holds the highest values, similar compounds and a random draw of the others, so the mix is not that of the screen.
MEASUREMENT_KIND: z-score

>>> assay_value("CCOC(=O)c1nc2cc3n(c(C)c-2c1C)C(C)C(CC)=C3C (stereo unspecified)")
2.31
>>> assay_value("CN1CCN(/C=N/c2c(C#N)cnn2-c2ccccc2)CC1")
0.237
>>> assay_value("CC(=O)O/N=C(/c1nonc1N)N1CCN(c2ccc([N+](=O)[O-])cc2Cl)CC1")
-0.222
>>> assay_value("Cc1cc2c(C)cc(=O)oc2c2c1NCCC2")
-0.295
>>> assay_value("O=C1NCCCc2c1oc1ccc(O)cc21")
-0.602
>>> assay_value("CCOC(=O)c1nc2cc3n(c(C)c-2c1C)C(C)C(C)=C3C (stereo unspecified)")
-0.0669
